# Target Under Test: (α4)2(β2)3 nAChR (A2B3, high affinity) (Rattus norvegicus, UniProt P09483+P12390, P09483:H144V/P09483:Q152F/P09483:T154L)
# Sequence (P12390 25-500): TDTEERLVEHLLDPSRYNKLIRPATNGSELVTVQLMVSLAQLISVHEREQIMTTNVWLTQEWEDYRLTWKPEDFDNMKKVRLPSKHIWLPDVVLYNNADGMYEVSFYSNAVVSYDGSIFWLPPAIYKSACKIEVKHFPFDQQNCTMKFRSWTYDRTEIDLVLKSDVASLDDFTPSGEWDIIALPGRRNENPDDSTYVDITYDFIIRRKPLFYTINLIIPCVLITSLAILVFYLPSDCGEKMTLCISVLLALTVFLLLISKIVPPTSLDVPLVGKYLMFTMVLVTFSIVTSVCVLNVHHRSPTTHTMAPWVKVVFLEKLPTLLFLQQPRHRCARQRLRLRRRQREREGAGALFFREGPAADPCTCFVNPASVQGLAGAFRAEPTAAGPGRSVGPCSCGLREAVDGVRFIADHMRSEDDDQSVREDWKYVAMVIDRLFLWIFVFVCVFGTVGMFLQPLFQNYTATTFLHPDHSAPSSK
# Sequence (P09483 31-630 H144V/Q152F/T154L): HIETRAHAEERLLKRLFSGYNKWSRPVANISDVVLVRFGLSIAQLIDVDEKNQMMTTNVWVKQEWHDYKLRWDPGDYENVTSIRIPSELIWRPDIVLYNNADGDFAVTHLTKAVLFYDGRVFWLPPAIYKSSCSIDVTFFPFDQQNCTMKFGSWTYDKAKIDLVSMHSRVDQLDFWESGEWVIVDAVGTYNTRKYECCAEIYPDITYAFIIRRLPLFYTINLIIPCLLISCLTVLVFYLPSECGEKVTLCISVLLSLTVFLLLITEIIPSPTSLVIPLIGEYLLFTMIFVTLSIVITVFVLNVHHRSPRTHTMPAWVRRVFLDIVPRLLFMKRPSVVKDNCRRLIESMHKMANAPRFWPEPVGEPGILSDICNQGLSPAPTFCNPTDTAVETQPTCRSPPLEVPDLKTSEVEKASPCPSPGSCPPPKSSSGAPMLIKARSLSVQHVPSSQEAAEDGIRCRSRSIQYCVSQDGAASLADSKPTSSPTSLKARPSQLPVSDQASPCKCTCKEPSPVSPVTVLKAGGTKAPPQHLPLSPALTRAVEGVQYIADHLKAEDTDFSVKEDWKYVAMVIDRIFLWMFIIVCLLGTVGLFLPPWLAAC
# Assay Name: two-electrode voltage clamp, Xenopus oocytes, agonist dose-response
# Experimental Context: -60 mV, ND96 Ca2+ free, pH 7.5
Readout Kind: pEC50
Answers are plain numbers, as −log10 of the molar value.

Inquiry: Need pEC50, item OCCCCC#Cc1cncc(OC[C@@H]2CCN2)c1 [sazetidine-A]
Reply text: 8.32
